# System: zfTac3rb
# Assay text: Receptor transactivation assay, SRE-Luc reporter (PKC activation), COS-7 cells expressing zfTac3rb
# Assay type: cell-based, zebrafish
# Experimental setup: Table 7 (native peptides and analogues); PKC activation; mean ± SEM; read-out: EC50 using SRE, zfTac3rb
*1 amine or outer side, *2 acyl side, *3 side chain or, on linkers, in order; H or OH if unused. Where a SMILES comes first, the peptide text is derived from it. [ ]: non-standard residue; d: D form. NMeF = CN[C@@H](Cc1ccccc1)C(=O)O; Suc = O=C(CCC(=O)[*:2])[*:1]
Entries and their pEC50
Convention used: pEC50 is expressed as -log10 of the molar concentration.

{"Compound": "CC[C@H](C)[C@H](NC(=O)[C@H](CC(=O)O)NC(=O)[C@H](Cc1c[nH]cn1)NC(=O)[C@H](CCSC)NC(=O)[C@@H](N)CCC(=O)O)C(=O)N[C@@H](Cc1ccccc1)C(=O)N[C@H](C(=O)NCC(=O)N[C@@H](CC(C)C)C(=O)N[C@@H](CCSC)C(N)=O)C(C)C [zfNKBa] (H-EMHDIFVGLM-NH2)", "Quantity": "pEC50", "Value observed": 7.58}
{"Compound": "CSCC[C@H](NC(=O)[C@H](CC(C)C)NC(=O)CNC(=O)[C@@H](NC(=O)[C@H](Cc1ccccc1)NC(=O)[C@H](Cc1ccccc1)NC(=O)[C@H](CC(=O)O)NC(=O)[C@H](Cc1c[nH]cn1)NC(=O)[C@H](CCSC)NC(=O)[C@@H](N)CC(=O)O)C(C)C)C(N)=O [huNKB, reference compound]", "Quantity": "pEC50", "Value observed": 9.09}

In the following, a different compound is considered.
Fill in pEC50 for CSCC[C@H](NC(=O)[C@H](CC(C)C)NC(=O)CNC(=O)[C@H](Cc1ccccc1)N(C)C(=O)[C@H](Cc1ccccc1)NC(=O)[C@H](CC(=O)O)NC(=O)CCC(=O)O)C(N)=O [Senktide, Succ-Asp-Phe-N(Me)Phe-Gly-Leu-Met-NH2, reference compound] (Suc-DF[NMeF]GLM-NH2) tested with zfTac3rb. 8.57
